Would you kindly list growth for each of these molecules?
System: E. coli TESEC Mtb Alr
PROTOCOL: growth (OD600 after 10 h); higher = more growth (less inhibition)
CONDITIONS_USED: arabinose 1000000 nM; compound 0.1 mM; raw OD600 reference: median of DMSO wells 0.193, cell-free background 0.041
Where a name gives a salt, the structure may show the parent alone.

Solved entries:
# MOLECULE, growth
rows = [
    ("CC(CCc1ccccc1)NC(C)C(O)c1ccc(O)cc1 (stereo not drawn)", 0.16),
    ("C[C@]12CC[C@H](O)C[C@@H]1CC[C@@H]1[C@@H]2CC[C@]2(C)C(=O)CC[C@@H]12 [Epiandrosterone]", 0.0694),
    ("C=C1CC[C@@]2(O)[C@H]3Cc4ccc(O)c5c4[C@@]2(CCN3CC2CC2)[C@H]1O5 [Nalmefene hydrochloride]", 0.19),
    ("C(#CCN1CCCC1)CN1CCCC1 [Tremorine dihydrochloride]", 0.194),
]

Here are 4 molecules. What values of growth were reported for them?
1. CCNCC(O)c1cccc(O)c1 (stereo not drawn) [Etilefrine hydrochloride]
2. CC(C)CC(N(C)C)C1(c2ccc(Cl)cc2)CCC1 (stereo not drawn) [Sibutramine HCl]
3. CN1[C@@H]2C[C@@H](OC(=O)[C@H](CO)c3ccccc3)C[C@H]1[C@@H]1O[C@@H]12 [Scopolamine hydrochloride]
4. CCC1=C[C@H]2CN3CCc4c([nH]c5ccccc45)[C@](C(=O)OC)(C2)[C@H]13

A.
[0.193, 0.131, 0.182, 0.101]

---

Test system: E. coli TESEC Mtb Alr
PROTOCOL: growth (OD600 after 10 h); higher = more growth (less inhibition)
CONDITIONS_USED: arabinose 1000000 nM; compound 0.1 mM; raw OD600 reference: median of DMSO wells 0.193, cell-free background 0.041
Where a name gives a salt, the structure may show the parent alone.
READOUT_TYPE: growth
Answers are plain numbers.

# MOLECULE, TESTED_ON, growth
data = [
    ("C[N+]1(C)[C@@H]2CC[C@H]1C[C@@H](OC(=O)C(CO)c1ccccc1)C2 (some centres undefined) [Methylatropine nitrate]", "E. coli TESEC Mtb Alr", 0.2),
    ("CCn1cc(C(=O)O)c(=O)c2cc3c(cc21)OCO3", "E. coli TESEC Mtb Alr", 0.0934),
    ("COc1ccc(OC)c(C(O)C(C)N)c1 (centres undefined) [Methoxamine hydrochloride]", "E. coli TESEC Mtb Alr", 0.187),
]

Please look at the following molecule next.
Note to self: growth recorded for COc1cc([C@@H]2c3cc4c(cc3[C@H](O)[C@H]3COC(=O)[C@H]23)OCO4)cc(OC)c1OC was 0.163

---

Test system: E. coli TESEC Alr+ wild-type control
PROTOCOL: growth (OD600 after 10 h); higher = more growth (less inhibition)
CONDITIONS_USED: compound 0.1 mM; raw OD600 reference: median of DMSO wells 0.49, cell-free background 0.052
Structures can show the parent of a compound that is named as a salt.
READOUT_TYPE: growth
Give bare numbers.

# COMPOUND, growth
rows = [
    ("COc1ccc(CCN)cc1OC [Homoveratrylamine]", 0.563),
    ("CCN(C)C(=O)Oc1cccc([C@H](C)N(C)C)c1 [Rivastigmine]", 0.504),
    ("CC[C@@H](C(N)=O)N1CCCC1=O [Levetiracetam]", 0.453),
]

Here are 5 compounds. What values of growth were reported for them?
1. C=C(C)[C@@H]1[C@H]2OC(=O)[C@@H]1[C@]1(O)C[C@H]3O[C@]34C(=O)O[C@H]2[C@]14C [Picrotoxinin]
2. O=[N+]([O-])O[C@@H]1CO[C@H]2[C@@H]1OC[C@@H]2O [Isosorbide mononitrate]
3. C[N+]12CCC(CC1)C(OC(=O)C(O)(c1ccccc1)c1ccccc1)C2 (stereo not drawn) [Clidinium bromide]
4. NC(=O)C[S+]([O-])C(c1ccccc1)c1ccccc1 (stereo not drawn) [Modafinil]
5. CCN(CC)C(C)C(=O)c1ccccc1 (stereo not drawn) [Amfepramone hydrochloride]

A.
0.479
0.548
0.611
0.634
0.556

Here are 6 compounds. What values of growth were reported for them?
1. COc1ccc(Cc2nccc3cc(OC)c(OC)cc23)cc1OC [Papaverine hydrochloride]
2. NC(=O)OCCCc1ccccc1 [Phenprobamate]
3. C[N+]1(C)[C@@H]2CC[C@H]1C[C@@H](OC(=O)C(CO)c1ccccc1)C2 (stereo partly drawn) [Methylatropine nitrate]
4. C#CCN(C)[C@H](C)Cc1ccccc1 [Selegiline hydrochloride]
5. O=C(CCCN1CCC2(CC1)C(=O)NCN2c1ccccc1)c1ccc(F)cc1 [Spiperone]
6. C[N+]1(C)CCCC(OC(=O)C(O)(c2ccccc2)c2ccccc2)C1 (stereo not drawn) [Mepenzolate bromide]

A.
1: 0.579; 2: 0.562; 3: 0.707; 4: 0.441; 5: 0.509; 6: 0.435

Here are 4 compounds. What values of growth were reported for them?
1. CCN[C@@H](C)Cc1cccc(C(F)(F)F)c1 [Dexfenfluramine hydrochloride]
2. Cc1cc(C(C#N)c2ccc(Cl)cc2)c(Cl)cc1NC(=O)c1cc(I)cc(I)c1O (stereo not drawn) [Closantel]
3. N[C@@H]1C[C@H]1c1ccccc1 [Tranylcypromine hydrochloride]
4. CC1C=CC=CCCC=CC=CC=CC=CC(OC2OC(C)C(O)C(N)C2O)CC2OC(O)(CC(O)C(O)CCC(O)CC(O)CC(O)CC(=O)OC(C)C(C)C1O)CC(O)C2C(=O)O (stereo not drawn) [Nystatine]

A.
[0.466, 0.128, 0.529, 0.471]
